molecular target: human integrin αvβ6 (Homo sapiens (Human), UniProt P06756+P18564); experiment: Proximity-based integrin receptor binding assay (ALPHASCREEN) for inhibitor potency; details: inhibition of binding of TGF-b1 LAP to human integrin αvβ6; values given in ranges; listed as 98**
Sequence (P06756 31-992): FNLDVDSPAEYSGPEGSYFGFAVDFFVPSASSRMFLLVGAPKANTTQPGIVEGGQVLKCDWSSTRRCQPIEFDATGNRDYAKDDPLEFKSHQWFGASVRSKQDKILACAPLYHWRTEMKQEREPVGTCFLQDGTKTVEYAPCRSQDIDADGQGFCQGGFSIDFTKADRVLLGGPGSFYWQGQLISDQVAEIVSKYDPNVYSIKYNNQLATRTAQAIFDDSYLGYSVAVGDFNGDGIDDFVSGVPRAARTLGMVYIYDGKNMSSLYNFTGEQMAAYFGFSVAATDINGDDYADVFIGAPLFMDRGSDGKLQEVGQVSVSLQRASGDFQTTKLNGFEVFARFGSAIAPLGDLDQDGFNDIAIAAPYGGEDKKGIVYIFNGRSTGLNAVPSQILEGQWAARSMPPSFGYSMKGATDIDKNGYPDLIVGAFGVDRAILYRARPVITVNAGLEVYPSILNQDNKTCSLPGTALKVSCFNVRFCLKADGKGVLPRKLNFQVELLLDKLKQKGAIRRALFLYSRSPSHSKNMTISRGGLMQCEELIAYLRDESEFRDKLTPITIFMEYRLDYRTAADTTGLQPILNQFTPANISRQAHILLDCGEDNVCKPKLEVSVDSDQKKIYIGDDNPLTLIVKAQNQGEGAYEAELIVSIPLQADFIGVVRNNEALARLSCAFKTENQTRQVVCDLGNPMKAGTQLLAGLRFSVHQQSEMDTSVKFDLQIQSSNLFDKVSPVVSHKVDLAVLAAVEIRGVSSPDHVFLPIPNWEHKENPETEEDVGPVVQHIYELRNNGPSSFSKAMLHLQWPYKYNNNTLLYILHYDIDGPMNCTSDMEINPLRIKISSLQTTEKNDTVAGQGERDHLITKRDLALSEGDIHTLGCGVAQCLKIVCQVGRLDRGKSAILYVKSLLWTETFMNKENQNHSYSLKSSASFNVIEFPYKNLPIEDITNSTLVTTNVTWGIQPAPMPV
Sequence (P18564 22-707): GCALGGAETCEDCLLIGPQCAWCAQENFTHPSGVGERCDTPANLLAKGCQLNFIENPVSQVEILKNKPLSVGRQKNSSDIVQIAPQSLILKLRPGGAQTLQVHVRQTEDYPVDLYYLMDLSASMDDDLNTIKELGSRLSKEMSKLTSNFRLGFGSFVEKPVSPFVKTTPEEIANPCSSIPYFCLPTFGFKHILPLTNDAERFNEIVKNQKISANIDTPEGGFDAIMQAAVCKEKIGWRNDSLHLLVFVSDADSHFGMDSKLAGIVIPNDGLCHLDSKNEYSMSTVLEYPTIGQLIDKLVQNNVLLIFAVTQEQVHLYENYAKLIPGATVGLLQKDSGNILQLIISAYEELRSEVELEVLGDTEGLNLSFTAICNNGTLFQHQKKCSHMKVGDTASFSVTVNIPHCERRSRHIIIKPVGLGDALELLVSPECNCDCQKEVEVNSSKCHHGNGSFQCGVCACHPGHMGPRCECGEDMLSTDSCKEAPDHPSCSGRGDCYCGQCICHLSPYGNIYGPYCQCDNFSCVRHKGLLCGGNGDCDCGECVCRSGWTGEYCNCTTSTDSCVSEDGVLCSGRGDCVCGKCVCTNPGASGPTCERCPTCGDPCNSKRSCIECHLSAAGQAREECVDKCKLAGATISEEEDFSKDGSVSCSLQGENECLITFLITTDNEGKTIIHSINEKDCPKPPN
test readout: IC50

Inquiry: For the compound CC(C)(C(=O)NC(CCO[C@H]1C[C@H](CCc2ccc3c(n2)NCCC3)C1)C(=O)O)c1ccccc1 (stereo partly shown) , what IC50 is on record?
Reply text: < 50 nM

* * *

The entries below are paired with their reported pIC50.
biological target: human integrin αvβ6 (Homo sapiens (Human), UniProt P06756+P18564); assay: Proximity-based integrin receptor binding assay (ALPHASCREEN) for inhibitor potency; settings: inhibition of binding of TGF-b1 LAP to human integrin αvβ6; values given in ranges
pIC50: −log10 of the molar value.

Example cases with answers are listed next.
>  <compound>
CC(C)(CO)C(=O)NC(CCO[C@H]1C[C@H](CCc2ccc3c(n2)NCCC3)C1)C(=O)O (stereo partly drawn) [Compound 89]

>  <measured value>
6.00 to 6.60

$$$$
>  <compound>
O=C(N[C@@H](CCO[C@H]1C[C@H](CCc2ccc3c(n2)NCCC3)C1)C(=O)O)c1ccc(Cl)cc1

>  <measured value>
> 7.30

$$$$
>  <compound>
CC(C)(Cc1ccccc1)C(=O)NC(CCO[C@H]1C[C@H](CCc2ccc3c(n2)NCCC3)C1)C(=O)O (stereo partly drawn) [Compound 100]

>  <measured value>
6.60 to 7.30

$$$$

Inquiry: For the compound CC1(OC(=O)N[C@@H](CCO[C@H]2C[C@H](CCc3ccc4c(n3)NCCC4)C2)C(=O)O)CCC1 , what pIC50 is on record?
Reply text: > 7.30

Inquiry: For the compound O=C(N[C@@H](CCO[C@H]1C[C@H](CCc2ccc3c(n2)NCCC3)C1)C(=O)O)c1cccc(CO)c1 , what pIC50 is on record?
Reply text: > 7.30
